Molecular target: F508delCFTR (Homo sapiens, UniProt P13569, DEL508-508)
Construct: expressed in transfected cells; host or cells: CFBE41o- human lung-derived epithelial cells (CFBE4lo-F508delCFTR-HRP), doxycycline-inducible
Sequence (P13569 with tags, fused parts or gaps DEL508-508): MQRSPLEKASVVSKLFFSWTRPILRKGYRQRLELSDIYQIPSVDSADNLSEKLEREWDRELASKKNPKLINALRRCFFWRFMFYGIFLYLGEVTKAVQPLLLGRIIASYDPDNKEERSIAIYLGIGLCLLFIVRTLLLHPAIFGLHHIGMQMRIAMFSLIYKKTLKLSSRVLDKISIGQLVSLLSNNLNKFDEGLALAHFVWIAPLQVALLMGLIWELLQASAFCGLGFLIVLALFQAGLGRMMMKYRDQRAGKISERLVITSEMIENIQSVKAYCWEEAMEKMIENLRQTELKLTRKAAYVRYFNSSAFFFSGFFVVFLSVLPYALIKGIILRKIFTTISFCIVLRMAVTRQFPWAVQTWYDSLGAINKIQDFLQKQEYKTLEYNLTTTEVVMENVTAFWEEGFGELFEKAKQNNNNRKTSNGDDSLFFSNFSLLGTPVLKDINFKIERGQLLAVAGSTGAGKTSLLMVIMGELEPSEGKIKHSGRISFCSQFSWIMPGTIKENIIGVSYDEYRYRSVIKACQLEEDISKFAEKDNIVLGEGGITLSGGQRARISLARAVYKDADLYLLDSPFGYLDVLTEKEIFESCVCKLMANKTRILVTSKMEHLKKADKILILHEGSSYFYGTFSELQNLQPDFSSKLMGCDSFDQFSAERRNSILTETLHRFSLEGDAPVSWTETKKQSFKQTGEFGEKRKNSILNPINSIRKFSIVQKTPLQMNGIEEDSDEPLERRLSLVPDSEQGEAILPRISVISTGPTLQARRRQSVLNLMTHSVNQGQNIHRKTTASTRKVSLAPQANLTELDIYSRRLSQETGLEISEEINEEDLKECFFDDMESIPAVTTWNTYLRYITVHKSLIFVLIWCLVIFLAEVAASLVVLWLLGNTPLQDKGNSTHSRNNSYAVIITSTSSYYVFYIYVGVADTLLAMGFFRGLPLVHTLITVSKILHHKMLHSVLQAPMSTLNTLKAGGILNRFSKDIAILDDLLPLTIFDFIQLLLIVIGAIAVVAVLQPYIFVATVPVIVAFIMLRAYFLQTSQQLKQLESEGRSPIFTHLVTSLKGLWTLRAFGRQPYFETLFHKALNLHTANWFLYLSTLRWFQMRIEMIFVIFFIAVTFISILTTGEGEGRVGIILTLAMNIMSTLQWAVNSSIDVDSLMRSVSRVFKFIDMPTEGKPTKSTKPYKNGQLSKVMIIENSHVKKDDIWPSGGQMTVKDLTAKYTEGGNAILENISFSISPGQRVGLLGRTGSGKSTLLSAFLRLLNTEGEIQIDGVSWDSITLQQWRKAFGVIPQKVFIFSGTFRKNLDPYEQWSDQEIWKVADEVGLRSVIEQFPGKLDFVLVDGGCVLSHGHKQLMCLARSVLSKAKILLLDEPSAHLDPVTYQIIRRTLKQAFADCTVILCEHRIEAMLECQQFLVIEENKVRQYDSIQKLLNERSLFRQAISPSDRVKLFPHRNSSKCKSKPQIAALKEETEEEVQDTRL
Assay: Cell Surface Expression-Horse Radish Peroxidase (CSE-HRP) Assay
Assay type: cell-based
Details: test compound without co-corrector; read-out: EC50 (without co-corrector)
measurement.name: EC50

Task: // returns reported EC50 for input CC(C)(C)[C@@H]1[C@@H](Nc2cccc(OC(F)F)n2)[C@@H](c2ccccc2)N(C(=O)C2CCCCC2)[C@H]1C(=O)O (racemic) [Example I-21]
Result: 1 to 10 µM

Task: Next entry: COc1ccc(C23CC(C2)C3)cc1CN[C@H]1[C@H](C(C)(C)C)[C@@H](C(=O)O)N(C(=O)OC(C)C)[C@H]1c1cccnc1OC(F)F [III-218]
Result: 1 to 10 µM

Task: Next entry: COc1cnc(C2CC3CCC2C3)cc1CN[C@H]1[C@H](C(C)(C)C)[C@@H](C(=O)O)N(C(=O)C2CCCCC2)[C@H]1c1ccccc1 (stereo partly drawn) [II-403]
Result: 1 to 10 µM

---

Target: F508delCFTR (Homo sapiens, UniProt P13569, DEL508-508)
Construct: expressed in transfected cells; host or cells: CFBE41o- human lung-derived epithelial cells (CFBE4lo-F508delCFTR-HRP), doxycycline-inducible
Experiment: Cell Surface Expression-Horse Radish Peroxidase (CSE-HRP) Assay
Assay type: cell-based
Settings: with co-corrector (2 μM of 3-[(2R,4R)-4-({[1-(2,2-difluoro-1,3-benzodioxol-5-yl)cyclopropyl]carbonyl}amino)-7-methoxy-3,4-dihydro-2H-chromen-2-yl]benzoic acid); read-out: EC50 (with co-corrector)
pEC50: −log10 of the molar value.
measurement.name: pEC50

molecule | study.system | pEC50
CC(C)(C)[C@@H]1[C@@H](Nc2ccc(C(F)(F)F)cn2)[C@@H](c2ccccc2)N(C(=O)C2CCCCC2)[C@H]1C(=O)O (racemic) | F508delCFTR (Homo sapiens, UniProt P13569, DEL508-508) | 5.00 to 6.00
COc1ncc(C(F)(F)F)cc1CN[C@H]1[C@H](C(C)(C)C)[C@@H](C(=O)O)N(C(=O)C2CCCCC2)[C@H]1c1cccc2c1OC(C)(C)C2 | F508delCFTR (Homo sapiens, UniProt P13569, DEL508-508) | > 6.00
CO[C@H](C(=O)N1[C@H](c2cccnc2N(C)C)[C@H](Nc2cc(C(F)(F)F)cc(C)n2)[C@@H](C(C)(C)C)[C@@H]1C(=O)O)c1ccccc1 (racemic) | F508delCFTR (Homo sapiens, UniProt P13569, DEL508-508) | 5.00 to 6.00
COc1ccc(C(C)(C)C)cc1CN[C@H]1[C@H](C(C)(C)C)[C@@H](C(=O)O)N(C(=O)C2CC(C)CC(C)C2)[C@H]1c1cccnc1N(C)C (stereo partly drawn) | F508delCFTR (Homo sapiens, UniProt P13569, DEL508-508) | 5.00 to 6.00
COc1ncc(C(F)(F)F)cc1CN[C@H]1[C@H](C(C)(C)C)[C@@H](C(=O)O)N(C(=O)C2CCCCC2)[C@H]1c1ccccc1F | F508delCFTR (Homo sapiens, UniProt P13569, DEL508-508) | > 6.00

Could you now consider this next molecule?
Task: Please provide the recorded pEC50 for COc1ccc(C(C)(C)C(F)(F)F)cc1CN[C@H]1[C@H](C(C)(C)C)[C@@H](C(=O)O)N(C(=O)C2CCCCC2)[C@H]1c1ccccc1 , tested on F508delCFTR (Homo sapiens, UniProt P13569, DEL508-508).
Result: 5.00 to 6.00
